# TGI values compiled below
# Test system: SF-295 CNS
# PROTOCOL_NOTES: NCI tumour cell line growth inhibition, 48 h
Expressed in µM, but write only the number.

COc1ccc(OC)c(CC2CCc3nc(N)nc(N)c3C2)c1 (stereo not given); 27.7
Cc1ccc(OC2CC(n3cnc4ncnc(Cl)c43)OC2Oc2ccc(C)cc2)cc1 (stereo not given); 56.7

*Q* // lookup TGI for Cc1noc2nnn(-c3ccc(Cl)cc3)c(=O)c12
*A* 27.8

*Q* Continue with CCCCCCCCCCCCOP(=O)(O)OCC(N)C(=O)O (stereo not given)
*A* 41.7

*Q* Same question, CC1(Cl)CCC2(CC(Br)=CC3OC32C)CC1Br (stereo not given) this time
*A* 57.6

*Q* Please do the same for CN1CCN(c2ccc3nc(-c4ccc5nc(-c6ccc(OCCC(C)(C)C)cc6)[nH]c5c4)[nH]c3c2)CC1 as well.
*A* 6.22

*Q* And CN(C)c1ccc(Nc2cc(-c3cccc(OC(F)(F)F)c3)nc3ccc(N4CCCC4)cc23)cc1 ?
*A* 3.57

*Q* Proceed to Brc1ccc2c([C@H]3CN[C@@H](c4c[nH]c5cc(Br)ccc45)CN3)c[nH]c2c1
*A* 19.3

*Q* And then Cc1ccc(O)c(-c2cc(-c3cccc(Cl)c3)c(C#N)c(N)n2)c1 , what is it?
*A* 32.6

====

TGI values by entry
# Test system: NCI/ADR-RES ovarian
# PROTOCOL_NOTES: NCI tumour cell line growth inhibition, 48 h

*Q* # query: TGI of entry CCOC(=O)NC(NC1=NCCS1)(C(=O)OCC)C(F)(F)F (stereo not given)
*A* > 100 µM

*Q* # repeat for CC1OC2(CC(OCc3ccccc3)C1OCc1ccccc1)OCCO2 (stereo not given)
*A* > 100 µM

*Q* // next record CC(=O)N(O)[C@@H]1CC[C@H](n2cnc3c(N)ncnc32)C1
*A* > 100 µM

*Q* Try this compound next: N#C/C(=C\NC(=S)c1ccncc1)c1nc2ccccc2s1
*A* > 100 µM

====

# Test system: MDA-MB-231 breast
# PROTOCOL_NOTES: NCI tumour cell line growth inhibition, 48 h
Each entry below lists one item and its recorded TGI value.
Give the number; µM is assumed, so skip it.

CCCCCCCCCc1cccc(N2C(N)=NC(N)=NC2(C)C)c1; 3.37
C#CC1(O)C(COP(=O)(O)OCC2OC(n3ccc(NCCCCCCCCCCCCCCCCCC)nc3=O)C(O)C2O)OC(n2ccc(N)nc2=O)C1O (centres undefined); 34.4
CC(C)[Si](OC1=CCC[C@H]2NC(=O)[C@@H](Cc3ccccc3)[C@@]12C)(C(C)C)C(C)C; 26.5
COc1ccc(/C=C2\CCC(CNc3ccc(OC)cc3)C2=O)cc1 (centres undefined); 35.7

*Q* Fill blank: measured TGI of the compound Cc1c(COc2cc(OCc3cccc(C#N)c3)c(CN3C[C@H](O)C[C@@H]3C(=O)O)cc2Cl)cccc1-c1ccc2c(c1)OCCO2 is ____.
*A* 29.6

*Q* // repeat for Cc1cc(Cl)ccc1NC(=O)c1cc2ccccc2cc1O and report
*A* 25.5

*Q* Try this compound next: COCOc1c(C(O[Si](C)(C)C(C)(C)C)c2cnc(Sc3ccccc3)n2C)ccc(OC)c1OC (centres undefined)
*A* 3.19

====

# Test system: SF-268 CNS
# PROTOCOL_NOTES: NCI tumour cell line growth inhibition, 48 h
ATTRIBUTE_MEASURED: TGI

*Q* Report TGI for Cc1cccnc1/N=C/c1c(O)n(C)c(=O)[nH]c1=O please.
*A* > 100 µM

*Q* What do we get for CNC(=O)N(C)COC ?
*A* > 100 µM

*Q* Proceed to CC(C)(C)c1cc(C2=NN(c3ccccc3)C(c3ccccc3)C2)cc(C(C)(C)C)c1O (stereo not given)
*A* > 100 µM

*Q* One more molecule: C[C@@H](CO)[C@@H]1CCC=C2CC[C@]3(C)[C@H](CC[C@@H]4[C@@]5(C)CCCNC(C)(C)[C@@H]5CC[C@]43C)[C@H]21
*A* 19.5 µM

*Q* Can you handle Nc1nc(-c2ccccc2)nc(N)c1N=O next?
*A* 39.2 µM

====

# maps each entry to its TGI
# Tested on: HOP-62 NSCLC
# PROTOCOL_NOTES: NCI tumour cell line growth inhibition, 48 h

// below: answered compounds
N=c1c2c(-c3ccccc3)c[nH]c2ncn1N; > 100 µM
CN(CC(=O)N(Cc1ccc(C2CCCCC2)cc1)c1ccc(C(=O)O)c(O)c1)S(=O)(=O)c1c(F)c(F)c(F)c(F)c1F; 30.4 µM
COC(=O)C1CCC(=O)N1C(c1ccc(OC)cc1)c1ccc(OC)cc1 (stereo not drawn); > 100 µM
CC1(C)[C@@H](O[C@@H]2OC[C@@H](O[C@@H]3O[C@H](CO)[C@@H](O)[C@H](O)[C@H]3O[C@@H]3OC[C@@H](O)[C@H](O)[C@H]3O)[C@H](O)[C@H]2O[C@@H]2O[C@H](CO)[C@@H](O)[C@H](O)[C@H]2O)CC[C@]2(C)[C@H]3CC[C@]45OC[C@@]6(CC[C@](C)(C=O)C[C@H]64)[C@H](O)C[C@@]5(C)[C@]3(C)CC[C@@H]12; 1.79 µM
Cc1cccnc1/N=C/c1c(O)n(C)c(=O)[nH]c1=O; > 100 µM

*Q* // lookup TGI for O=C(Cn1ccnc1[N+](=O)[O-])c1ccc(F)cc1
*A* > 100 µM

*Q* Another compound to check: Fc1ccc2nc3n(c2c1)C(c1c(Cl)cccc1Cl)SC3 (stereo not drawn)
*A* > 100 µM

*Q* Can you check CC(=O)O[C@]1(C(C)=O)CC[C@H]2[C@@H]3C=C(C)C4=CC(=O)CC[C@]4(C)[C@H]3CC[C@@]21C next?
*A* > 100 µM

*Q* Query COc1cc(O)c(C(=O)/C=C/c2ccc(O)cc2)c(O)c1[C@@H]1C[C@H](CCc2ccc(O)cc2)O[C@H](c2ccc(O)cc2)C1 next
*A* 11.2 µM

*Q* Note, next up: CN(C)c1ccccc1CN1CCCN(Cc2ccccc2N(C)C)C1c1ccncc1
*A* 30.3 µM

*Q* What would you report for Nc1[nH]c(=S)nc2snnc12 ?
*A* > 100 µM

*Q* Same lookup for CCOc1ccc(/C=N/[N+](C)(C)C)cc1OCC , please.
*A* > 10 µM

*Q* Next entry: N#Cc1c(N)nc(N2CCOCC2)c(C#N)c1-c1cccnc1
*A* > 100 µM

*Q* Cool, now CC(C)[Si](OC1=CCC[C@H]2NC(=O)[C@@H](Cc3ccccc3)[C@@]12C)(C(C)C)C(C)C
*A* 24.2 µM

*Q* Now this one: CCOC(=O)c1c(N2CCCC2)[nH]c(=O)c(C(c2ccco2)c2c(O)c(C(=O)OCC)c(N3CCCC3)[nH]c2=O)c1O
*A* > 100 µM

*Q* Further, for CC(=O)N(O)[C@@H]1CC[C@H](n2cnc3c(N)ncnc32)C1 ?
*A* > 100 µM

*Q* Continue with COc1ccc2oc(OC)c(CC=C(C)C)c(=O)c2c1C
*A* > 100 µM

*Q* Same lookup for COC(=O)c1c(N)n[nH]c1N , please.
*A* > 100 µM

====

# Tested on: OVCAR-8 ovarian
# PROTOCOL_NOTES: NCI tumour cell line growth inhibition, 48 h
ATTRIBUTE_MEASURED: GI50

Known GI50 results, listed for orientation:
N#Cc1c(N)nc(N2CCOCC2)c(C#N)c1-c1cccnc1; > 100 µM
Cc1c(COc2cc(OCc3cccc(C#N)c3)c(CN3C[C@H](O)C[C@@H]3C(=O)O)cc2Cl)cccc1-c1ccc2c(c1)OCCO2; 27.1 µM
O=C1/C(=C/c2ccc(Cl)cc2)N=C(c2ccccc2)N1CCc1cccs1; 43.8 µM
CN1c2ccccc2C(C)(C)C12C=Cc1cc(O)ccc1O2 (stereo not given); 3.16 µM

Here is the next item to consider.
*Q* Reported GI50 for OVCAR-8 ovarian, given CN1CCN(c2ccc3nc(-c4ccc5nc(-c6ccc(OCCC(C)(C)C)cc6)[nH]c5c4)[nH]c3c2)CC1 ?
*A* 4.69 µM

====

# Test system: PC-3 prostate
# PROTOCOL_NOTES: NCI tumour cell line growth inhibition, 48 h; in the data active = GI50 below about 0.43 µM; inactive = the rest
The reply should name one outcome from Y for active, N for inactive

CCC1CCc2nc3sc(C(=O)Nc4cccc(F)c4)c(N)c3cc2C1 (stereo unspecified); N
COc1cc(/C=C/C(=O)c2c(C)nc3ccccc3c2C)ccc1OCCCOc1cc2c(cc1OC)C(=O)N1CCC[C@H]1C=N2; Y
CC[C@@H](C(=O)[C@@H](C)[C@@H](O)[C@H](C)[C@@H]1O[C@@H]([C@@H](CC)C(=O)N(CC)CC)CC[C@@H]1C)C1O[C@]2(C=CC(=O)[C@]3(CC[C@@](C)([C@H]4CC[C@](O)(CC)[C@H](C)O4)O3)O2)[C@H](C)C[C@@H]1C (stereo partly specified); N
N#Cc1c(N)nc(N2CCOCC2)c(C#N)c1-c1cccnc1; N

*Q* Which result was noted for this molecule in the test: COC(=O)C1=C(C)NC(C)=C(C(=O)OC)C1/C=C(Cl)/C=C/c1ccccc1
*A* N

*Q* CN(CC(=O)N(Cc1ccc(C2CCCCC2)cc1)c1ccc(C(=O)O)c(O)c1)S(=O)(=O)c1c(F)c(F)c(F)c(F)c1F , same question.
*A* N

*Q* Same again, this time with C=C1CCC2C(C)(C)CCC[C@]2(C)[C@H]1CO (stereo partly specified)
*A* N

*Q* Could you do the same for O=C(NCc1ccc(Cn2c(=O)sn(-c3ccccc3)c2=O)cc1)OCc1ccc2c(Br)cc(Br)c(O)c2n1 , please?
*A* N

*Q* And for Cc1cc(N(CCNc2ccnc3cc(Cl)ccc23)Cc2ccco2)nc(Cl)n1 ?
*A* N

*Q* Request: C[C@@H](CO)[C@@H]1CCC=C2CC[C@]3(C)[C@H](CC[C@@H]4[C@@]5(C)CCCNC(C)(C)[C@@H]5CC[C@]43C)[C@H]21
*A* N

*Q* Same read-out for CN1CCN(c2ccc3nc(-c4ccc5nc(-c6ccc(OCCC(C)(C)C)cc6)[nH]c5c4)[nH]c3c2)CC1 ?
*A* N

These data points were gathered from PubChem BioAssay (NCI).
